# assay-remarks: DRUGMATRIX: Phorbol Ester radioligand binding (ligand: [3H] PDBu)
# Type: cell membranes, Mus musculus, ICR, Brain, Membrane
# measurement-conditions: Not Active = under 50% inhibition at 10 µM
measured-metric: Ki

Cc1cc2cc3c(C)cc(=O)oc3c(C)c2o1 ... Not Active
COC(=O)C1=C(C)NC(C)=C(C(=O)OCC(C)C)C1c1ccccc1[N+](=O)[O-] (centres undefined) ... Not Active
C[C@@H]1C[C@@H]([C@H](O)CC2CC(=O)NC(=O)C2)C(=O)[C@@H](C)C1 [CYCLOHEXIMIDE] ... Not Active
C[C@H]1C[C@H]2[C@@H]3CCC4=CC(=O)C=C[C@]4(C)[C@@]3(Cl)[C@@H](O)C[C@]2(C)[C@@]1(O)C(=O)CO ... Not Active
